Origin of measurements: patent US20020028809A1

Each entry below carries its recorded pKi.
Target: α4β2 subtype of nicotinic acetylcholine receptors (Rattus norvegicus, UniProt P09483+P12390)
Construct: examined using rat brain membrane obtained from whole homogenized brain; from tissue; host or cells: whole brain of Fischer-344 male rats, membrane pellet
Sequence (P09483 31-630): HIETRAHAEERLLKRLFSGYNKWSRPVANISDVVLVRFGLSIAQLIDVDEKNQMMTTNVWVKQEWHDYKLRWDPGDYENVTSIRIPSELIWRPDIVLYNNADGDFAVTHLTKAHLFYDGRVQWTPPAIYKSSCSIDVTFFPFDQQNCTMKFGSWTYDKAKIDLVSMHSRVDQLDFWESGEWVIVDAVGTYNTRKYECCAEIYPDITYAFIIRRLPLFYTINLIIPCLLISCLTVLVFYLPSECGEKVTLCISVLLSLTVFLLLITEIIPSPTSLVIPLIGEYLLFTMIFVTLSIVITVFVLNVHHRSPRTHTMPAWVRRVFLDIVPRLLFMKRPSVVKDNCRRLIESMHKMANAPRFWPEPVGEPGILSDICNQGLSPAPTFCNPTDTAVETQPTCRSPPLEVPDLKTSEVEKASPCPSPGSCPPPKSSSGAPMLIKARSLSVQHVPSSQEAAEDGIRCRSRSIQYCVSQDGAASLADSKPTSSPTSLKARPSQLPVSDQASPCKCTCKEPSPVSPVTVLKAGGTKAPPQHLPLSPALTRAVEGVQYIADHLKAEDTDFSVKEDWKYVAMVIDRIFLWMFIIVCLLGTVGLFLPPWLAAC
Sequence (P12390 25-500): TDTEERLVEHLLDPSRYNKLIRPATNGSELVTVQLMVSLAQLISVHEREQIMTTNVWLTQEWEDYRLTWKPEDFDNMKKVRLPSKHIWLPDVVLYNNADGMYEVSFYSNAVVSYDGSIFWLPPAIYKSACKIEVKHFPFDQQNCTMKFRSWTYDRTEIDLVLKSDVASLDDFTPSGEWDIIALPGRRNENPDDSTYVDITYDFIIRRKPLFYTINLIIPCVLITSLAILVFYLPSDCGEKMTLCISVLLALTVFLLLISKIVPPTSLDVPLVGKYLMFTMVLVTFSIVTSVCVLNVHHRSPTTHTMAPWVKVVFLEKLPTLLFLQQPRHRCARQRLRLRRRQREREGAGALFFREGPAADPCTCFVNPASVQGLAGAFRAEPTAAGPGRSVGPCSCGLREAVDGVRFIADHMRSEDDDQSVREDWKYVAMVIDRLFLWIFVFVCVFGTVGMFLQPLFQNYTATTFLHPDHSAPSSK
Assay: Binding assays at α4β2 subtype of nicotinic acetylcholine receptors ([3H]-cytisine, rat brain membrane)
pKi: −log10 of the molar value.
observation_type: pKi

INSERT INTO measurements (compound, obs_value) VALUES
  ('N=c1sccn1Cc1cccc([N+](=O)[O-])c1', 7.18),
  ('N=C1SCCN1Cc1ccc(Cl)cc1', 7.03),
  ('N=c1sccn1Cc1ccc([N+](=O)[O-])cc1', 7.54),
  ('Cc1ccc(Cn2ccccc2=N)cn1', 7.32),
  ('N=C1SCCN1Cc1cnc(Cl)s1', 8.31),
  ('Cc1ccc(=N)n(Cc2ccc(Cl)nc2)c1', 7.31),
  ('Cc1ccc(Cn2ccnc2N)cn1', 6.78),
  ('N=C1SCC(c2ccccc2)N1Cc1ccc(Cl)nc1 (centres unmarked)', 7.43),
  ('Cc1csc(=N)n1Cc1ccc(F)nc1', 7.97),
  ('Cc1ccc(CN2CCSC2=N)cn1', 8.00),
  ('Cc1csc(=N)n1Cc1ccc(Cl)nc1', 8.46);

###

# reported remaining activity at 100 µM; entries follow
Target: α1β1γδ subtype of nicotinic acetylcholine receptors (Rattus norvegicus, UniProt P18916+P25108+P25109+P25110)
Construct: Native receptor, no construct: "Triton X100 (2% w/v) was added
Sequence (P25108 21-457): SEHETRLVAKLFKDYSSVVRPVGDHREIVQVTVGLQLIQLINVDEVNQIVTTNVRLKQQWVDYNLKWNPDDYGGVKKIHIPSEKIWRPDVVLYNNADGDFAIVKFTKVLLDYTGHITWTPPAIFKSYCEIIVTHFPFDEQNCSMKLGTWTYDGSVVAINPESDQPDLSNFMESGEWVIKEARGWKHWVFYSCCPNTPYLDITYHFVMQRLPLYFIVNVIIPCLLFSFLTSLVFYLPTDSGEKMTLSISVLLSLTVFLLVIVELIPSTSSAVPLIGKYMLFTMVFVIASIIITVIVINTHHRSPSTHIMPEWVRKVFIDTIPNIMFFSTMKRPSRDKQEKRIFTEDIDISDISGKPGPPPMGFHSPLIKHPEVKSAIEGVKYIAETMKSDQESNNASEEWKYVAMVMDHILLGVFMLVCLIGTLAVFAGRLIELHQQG
Sequence (P25110 22-517): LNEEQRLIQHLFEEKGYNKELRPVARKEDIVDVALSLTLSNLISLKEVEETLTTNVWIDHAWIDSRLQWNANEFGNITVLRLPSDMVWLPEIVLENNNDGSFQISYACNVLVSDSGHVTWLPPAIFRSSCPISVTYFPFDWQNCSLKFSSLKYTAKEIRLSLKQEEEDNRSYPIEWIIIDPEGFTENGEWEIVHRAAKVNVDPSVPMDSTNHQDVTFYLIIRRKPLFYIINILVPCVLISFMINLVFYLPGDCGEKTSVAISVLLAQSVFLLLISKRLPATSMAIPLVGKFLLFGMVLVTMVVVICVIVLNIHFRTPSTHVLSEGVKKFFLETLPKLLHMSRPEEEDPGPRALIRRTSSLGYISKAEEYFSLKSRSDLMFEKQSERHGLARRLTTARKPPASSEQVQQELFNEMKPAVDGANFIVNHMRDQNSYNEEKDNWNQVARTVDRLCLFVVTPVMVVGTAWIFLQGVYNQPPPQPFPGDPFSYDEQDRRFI
Sequence (P25109 24-501): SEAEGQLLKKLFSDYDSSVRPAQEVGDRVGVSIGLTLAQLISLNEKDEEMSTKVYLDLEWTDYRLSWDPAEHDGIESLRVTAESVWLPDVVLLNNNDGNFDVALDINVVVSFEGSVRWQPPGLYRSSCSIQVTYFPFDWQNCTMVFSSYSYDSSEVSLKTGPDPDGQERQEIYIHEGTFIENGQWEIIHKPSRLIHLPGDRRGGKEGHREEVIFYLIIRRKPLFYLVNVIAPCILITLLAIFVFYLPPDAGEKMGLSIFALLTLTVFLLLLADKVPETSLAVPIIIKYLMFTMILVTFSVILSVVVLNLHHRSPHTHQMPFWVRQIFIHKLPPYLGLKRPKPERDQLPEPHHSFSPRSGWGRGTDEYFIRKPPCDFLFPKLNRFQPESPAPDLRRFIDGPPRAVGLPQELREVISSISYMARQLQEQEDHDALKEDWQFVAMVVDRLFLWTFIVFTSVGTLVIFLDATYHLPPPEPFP
Experiment: Binding assays at α1β1γδ subtype of nicotinic acetylcholine receptors ([3H]-α-bungarotoxin, rat muscle extract)
Settings: read-out: control % of [3H]-α-Bgt binding
observation_type: remaining activity at 100 µM (%)

INSERT INTO results (smiles_str, observation_type, obs_value) VALUES
  ('N=c1sccn1Cc1ccc(Br)nc1', 'remaining activity at 100 µM', 13),
  ('Cc1ccc(=N)n(Cc2ccc(Cl)nc2)c1', 'remaining activity at 100 µM', 80),
  ('Cc1cc(CN2CCSC2=N)on1', 'remaining activity at 100 µM', 12),
  ('N=C1OCCCN1Cc1ccc(Cl)nc1', 'remaining activity at 100 µM', 14),
  ('Cc1cc(Cn2c(C)csc2=N)on1', 'remaining activity at 100 µM', 10),
  ('N=c1ccc([N+](=O)[O-])cn1Cc1ccc(Cl)nc1', 'remaining activity at 100 µM', 93),
  ('N=c1ccc(Cl)nn1Cc1ccc(Cl)nc1', 'remaining activity at 100 µM', 44),
  ('Nc1nccn1Cc1cnc(Cl)c(Cl)c1', 'remaining activity at 100 µM', 113),
  ('N=C1SCCN1Cc1cccnc1', 'remaining activity at 100 µM', 6),
  ('Cc1cn(Cc2ccc(Cl)nc2)c(N)n1', 'remaining activity at 100 µM', 98),
  ('N=c1ccc(-c2ccccc2)nn1Cc1ccc(Cl)nc1', 'remaining activity at 100 µM', 80),
  ('Cc1ccn(Cc2ccc(Cl)nc2)c(=N)c1', 'remaining activity at 100 µM', 90),
  ('N=c1scc(-c2ccc(Cl)cc2)n1Cc1ccc(Cl)nc1', 'remaining activity at 100 µM', 75),
  ('N=c1sc(-c2ccccc2)cn1Cc1ccc(Cl)nc1', 'remaining activity at 100 µM', 71),
  ('Cc1nc(N)n(Cc2ccc(Cl)nc2)c1C', 'remaining activity at 100 µM', 103),
  ('N=c1ncc(-c2ccccc2)cn1Cc1ccc(Cl)nc1', 'remaining activity at 100 µM', 88),
  ('N=c1sccn1Cc1ccc(F)nc1', 'remaining activity at 100 µM', 20),
  ('N=c1scc(-c2ccccc2)n1Cc1ccc(Cl)nc1', 'remaining activity at 100 µM', 79),
  ('N=C1SCCN1Cc1cnc(Cl)s1', 'remaining activity at 100 µM', 14),
  ('Cc1cccn(Cc2ccc(Cl)nc2)c1=N', 'remaining activity at 100 µM', 89),
  ('N=c1ccc(-c2ccccc2)nn1Cc1cccnc1', 'remaining activity at 100 µM', 18),
  ('N=C1SCCN1Cc1ccnnc1', 'remaining activity at 100 µM', 15),
  ('N=C1CCCN1Cc1ccc(Cl)nc1', 'remaining activity at 100 µM', 14),
  ('Cc1sc(=N)n(Cc2ccc(Cl)nc2)c1C', 'remaining activity at 100 µM', 96),
  ('N=C1NCCN1Cc1ccc(Cl)nc1', 'remaining activity at 100 µM', 26);

###

Molecular target: human α4β2 subtype of nicotinic acetylcholine receptors (Homo sapiens, UniProt P17787+P43681)
Construct: expressed in transfected cells; host or cells: Xenopus laevis oocytes injected with 50 ng each of α4 and β2 cRNA (pSP64 polyA vector)
Sequence (P43681 29-627 limits assumed): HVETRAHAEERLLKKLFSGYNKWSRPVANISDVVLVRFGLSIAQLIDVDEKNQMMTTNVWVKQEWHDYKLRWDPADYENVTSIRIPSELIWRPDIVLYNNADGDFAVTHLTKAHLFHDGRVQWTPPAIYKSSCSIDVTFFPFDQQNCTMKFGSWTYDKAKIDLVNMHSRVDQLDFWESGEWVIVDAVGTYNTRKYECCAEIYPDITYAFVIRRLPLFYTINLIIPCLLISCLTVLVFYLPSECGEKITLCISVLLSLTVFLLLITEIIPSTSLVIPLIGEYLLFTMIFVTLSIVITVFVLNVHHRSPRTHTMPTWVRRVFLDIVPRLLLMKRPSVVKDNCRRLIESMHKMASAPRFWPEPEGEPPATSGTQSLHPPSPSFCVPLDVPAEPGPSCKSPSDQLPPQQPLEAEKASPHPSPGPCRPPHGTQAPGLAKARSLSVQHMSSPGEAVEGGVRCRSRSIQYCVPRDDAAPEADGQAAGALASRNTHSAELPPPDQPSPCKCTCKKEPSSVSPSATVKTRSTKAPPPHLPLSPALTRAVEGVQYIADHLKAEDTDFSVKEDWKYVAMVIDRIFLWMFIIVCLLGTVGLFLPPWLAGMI
Sequence (P17787 26-502): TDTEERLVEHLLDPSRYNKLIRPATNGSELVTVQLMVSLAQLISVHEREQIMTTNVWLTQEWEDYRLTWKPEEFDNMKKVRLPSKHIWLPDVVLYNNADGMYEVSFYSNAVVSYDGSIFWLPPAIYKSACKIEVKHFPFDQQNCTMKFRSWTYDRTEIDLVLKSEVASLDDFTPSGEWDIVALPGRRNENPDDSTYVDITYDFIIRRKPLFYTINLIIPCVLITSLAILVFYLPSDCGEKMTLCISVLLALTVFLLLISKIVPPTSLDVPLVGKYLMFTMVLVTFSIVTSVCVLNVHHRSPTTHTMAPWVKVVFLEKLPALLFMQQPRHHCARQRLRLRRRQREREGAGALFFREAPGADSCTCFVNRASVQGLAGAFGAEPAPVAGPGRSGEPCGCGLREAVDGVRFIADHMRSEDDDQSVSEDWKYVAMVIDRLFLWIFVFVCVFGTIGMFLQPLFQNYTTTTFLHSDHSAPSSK
Experiment: Agonist activities at human α4β2 subtype of nicotinic acetylcholine receptors expressed in Xenopus oocytes (membrane potential holding method)
Assay type: cell-based
Details: read-out: Agonist activity: control % by response at 100 μM of the test compound
Kindly return True if reported Emax at 100 µM is no lower than 20%; return False if it is lower.

INSERT INTO assay_data (compound, label_class) VALUES
  ('Nc1nccn1Cc1c[nH]c2ncccc12 [Compound 59]', 'True'),
  ('N=c1ccc(-c2ccccc2)nn1Cc1ccc(Cl)nc1 [Compound 44]', 'False'),
  ('N=C1SCCN1Cc1cnc(Cl)s1 [Compound 34]', 'False'),
  ('N=c1sccn1Cc1ccc(F)nc1 [Compound 12]', 'True'),
  ('Cc1csc(=N)n1Cc1ccc(Br)nc1 [Compound 19]', 'False'),
  ('N=C1SCCN1Cc1ccnnc1 [Compound 33]', 'False'),
  ('N=C1SCCN1Cc1ccc(Cl)cc1 [Compound 31, 3-(4-chlorobenzyl)-2-iminothiazolidine]', 'False'),
  ('N=c1sccn1Cc1ccc(Cl)cc1 [Compound 57]', 'True'),
  ('N=c1sccn1Cc1ccc(Br)nc1 [Compound 11]', 'True'),
  ('Cc1ccc(Cn2ccnc2N)cn1 [Compound 56]', 'False');

###

Target: α1β1γδ subtype of nicotinic acetylcholine receptors (Rattus norvegicus, UniProt P18916+P25108+P25109+P25110)
Construct: Native receptor, no construct: "Triton X100 (2% w/v) was added
Test: Binding assays at α1β1γδ subtype of nicotinic acetylcholine receptors ([3H]-α-bungarotoxin, rat muscle extract)
Details: read-out: control % of [3H]-α-Bgt binding
observation_type: remaining activity at 100 µM (%)

INSERT INTO results (smiles_str, u, obs_value) VALUES
  ('Cc1cn(Cc2ccc(Cl)nc2)c(=N)s1', '%', 69),
  ('N=C1SCCCN1Cc1ccc(Cl)nc1', '%', 68),
  ('N=c1sccn1Cc1cccc(C(F)(F)F)c1', '%', 77),
  ('Nc1nccn1Cc1ccc(Cl)nc1', '%', 86),
  ('N=c1ccc(Cl)cn1Cc1ccc(Cl)nc1', '%', 75),
  ('N=C1CCCCN1Cc1ccc(Cl)nc1', '%', 21),
  ('N=C1SCCN1Cc1ccc(Cl)cc1', '%', 37),
  ('CCc1csc(=N)n1Cc1ccc(Cl)nc1', '%', 57),
  ('Nc1nccn1Cc1ccc(Cl)cc1', '%', 62),
  ('N=C1SCCN1Cc1cccnn1', '%', 18);

###

Target: α1β1γδ subtype of nicotinic acetylcholine receptors (Rattus norvegicus, UniProt P18916+P25108+P25109+P25110)
Construct: Native receptor, no construct: "Triton X100 (2% w/v) was added
Test: Binding assays at α1β1γδ subtype of nicotinic acetylcholine receptors ([3H]-α-bungarotoxin, rat muscle extract)
Details: read-out: control % of [3H]-α-Bgt binding
observation_type: remaining activity at 1000 µM (%)

INSERT INTO results (smiles_str, observation_type, u, obs_value) VALUES
  ('Nc1nccn1Cc1ccc(Cl)cc1', 'remaining activity at 1000 µM', '%', 37),
  ('N=c1ccc([N+](=O)[O-])cn1Cc1ccc(Cl)nc1', 'remaining activity at 1000 µM', '%', 73),
  ('Cc1cccn(Cc2ccc(Cl)nc2)c1=N', 'remaining activity at 1000 µM', '%', 52),
  ('N=C1SCCN1Cc1cccnn1', 'remaining activity at 1000 µM', '%', 14),
  ('Nc1nccn1Cc1cnc(Cl)c(Cl)c1', 'remaining activity at 1000 µM', '%', 52),
  ('N=C1SCCN1Cc1ccnnc1', 'remaining activity at 1000 µM', '%', 1),
  ('N=c1ncc(-c2ccccc2)cn1Cc1ccc(Cl)nc1', 'remaining activity at 1000 µM', '%', 66),
  ('N=C1SCCN1Cc1ccc(Cl)cc1', 'remaining activity at 1000 µM', '%', 10),
  ('Cc1ccc(=N)n(Cc2ccc(Cl)nc2)c1', 'remaining activity at 1000 µM', '%', 36),
  ('Cc1ccn(Cc2ccc(Cl)nc2)c(=N)c1', 'remaining activity at 1000 µM', '%', 58),
  ('N=c1sccn1Cc1cccc(C(F)(F)F)c1', 'remaining activity at 1000 µM', '%', 23),
  ('Cc1sc(=N)n(Cc2ccc(Cl)nc2)c1C', 'remaining activity at 1000 µM', '%', 45),
  ('Cc1cc(CN2CCSC2=N)on1', 'remaining activity at 1000 µM', '%', -3),
  ('N=C1CCCN1Cc1ccc(Cl)nc1', 'remaining activity at 1000 µM', '%', 0),
  ('Cc1cn(Cc2ccc(Cl)nc2)c(=N)s1', 'remaining activity at 1000 µM', '%', 28),
  ('N=c1ccc(Cl)nn1Cc1ccc(Cl)nc1', 'remaining activity at 1000 µM', '%', 15),
  ('N=c1sccn1Cc1ccc(Br)nc1', 'remaining activity at 1000 µM', '%', 5),
  ('N=c1sc(-c2ccccc2)cn1Cc1ccc(Cl)nc1', 'remaining activity at 1000 µM', '%', 35),
  ('Nc1nccn1Cc1ccc(Cl)nc1', 'remaining activity at 1000 µM', '%', 49),
  ('N=C1SCCN1Cc1cnc(Cl)s1', 'remaining activity at 1000 µM', '%', -1),
  ('N=C1CCCCN1Cc1ccc(Cl)nc1', 'remaining activity at 1000 µM', '%', 4),
  ('N=C1SCCN1Cc1cccnc1', 'remaining activity at 1000 µM', '%', 1);
